Test system: SF-268 CNS
experiment: NCI-60 one-dose screen, 48 h (100 = growth as untreated, 0 = no growth, -100 = all killed)
experimental parameters: 10 µM unless noted
About 83,000 compounds went through this panel and 20% of them were active in at least one assay; those are over-represented in the sample as a whole.
measured metric: growth (%)
Please state the figure in %; there is no need to write the unit.

The observed growth for CCN1CCN(CC(=O)Nc2nc3ccc(NCc4ccc(F)cc4)cc3s2)CC1 when tested with SF-268 CNS stands at 94.3

Bench note, SF-268 CNS: entry Cc1nc2c(=O)nc3s/c(=C\c4ccco4)c(=O)n3c2nc1C , its growth = 100

Short answer on SF-268 CNS for O=C(Cc1ccc(NC(=O)c2cccc(Cl)c2)cc1)NCc1ccccc1 , growth: 61.7

Lab entry: SF-268 CNS assay, molecule CCOC(=O)c1c(C)nc2ccccc2c1/C=C/c1cccs1 , growth = 89.4

# growth measured on SF-268 CNS for item O=C(Nc1ncc(Cc2ccccc2)s1)c1ccc2c(c1)OCCCO2 = 60.4

Record for CN1CCN(C(=S)SCCCCOc2cc(=O)oc3ccccc23)CC1 under target or system SF-268 CNS: growth reported as 87.7

Noted growth for COc1ccc(C(=O)N2c3ccccc3Sc3ccccc32)c(C(F)(F)F)c1 , tested on SF-268 CNS: 35.2

Bench note, SF-268 CNS: entry CC1=CCC(OC(=O)C(C)(C)CC(O)(C(C)O)C(O)C2(C)C=CC(Cc3ccc(C(C)C)cc3)(C(C)C)CC2)(C(C)C)CC1 (stereo not given) , its growth = 98.5

Test item COCCn1cc(-c2csc(-c3c[nH]c4ccc(Br)cc34)n2)c2cccnc21 ; SF-268 CNS; reported growth was 44.3

Lab note: molecule COc1cccc(-c2cc(-c3cccc(Cl)c3)c(C#N)c(=O)[nH]2)c1 tested on SF-268 CNS; recorded growth was 79.1

Lab note: molecule O=C(NC1CC(F)C1)c1cc2cccnc2n1-c1ccc(Cl)c(Cl)c1 (stereo not given) tested on SF-268 CNS; recorded growth was 91.6

Reading of growth for CS(=O)(=O)Nc1cc(-c2ccc3ncc(C#N)c(Nc4ccc(F)c(Cl)c4)c3c2)cnc1Cl with SF-268 CNS: 8.18

Simply: Cc1ccc2c(=O)cc(C(=O)Nc3sc4c(c3C(=O)NCc3cccnc3)CCCC4)oc2c1C , SF-268 CNS, growth = 93.2

Result for CCN1C(=O)N(CC)C2C1NN=c1s/c(=C3\C(=O)N(CC(C)C)c4ccccc43)c(=O)n12 (stereo not given) , tested on SF-268 CNS, growth: 54.9

Kindly note: SF-268 CNS, CCOC(=O)c1ccccc1-c1c2ccc(=[N+](C)C)cc-2oc2cc(N(C)C)ccc12 , growth value reported: 20.8

Sample Cc1nn(-c2cc(NC3CCC(O)CC3)c3c(=O)[nH]c(CCC(F)(F)F)cc3c2)c2c1C(=O)CC(C)(C)C2 (stereo not given) , system: SF-268 CNS. Its growth is 72

Result for COc1ccc(C(=O)c2cc3c(N)c(C(=O)Nc4ccccc4)sc3nc2C)cc1 , tested on SF-268 CNS, growth: 51.4

Observed growth, SF-268 CNS, CC1(C)N=C(N)N=C(N)N1c1cccc(CCc2ccccc2)c1 : 32.4

The value of growth recorded for CC1(C)CC2=C3C=C[C@@H]4[C@@]5(C)CCC(=O)C(C)(C)[C@@H]5CC[C@@]4(C)[C@]3(C)CC[C@@]2(C(=O)O)C[C@H]1O when tested on SF-268 CNS reads 32.6

Measured on SF-268 CNS, O=C(N/N=C\c1ccccc1S(=O)(=O)O)N/N=C/c1ccccc1S(=O)(=O)O has a documented growth of 102

Numbers sourced from PubChem BioAssay (NCI).
